tested system: HLA-A*0201 on mild-acid treated JY cells (human)
procedure text: competition vs FL-reference peptide, JY cells, 26°C 24 hr
metric: IC50 (µM)
One number for each entry, in µM.

Given YMLDLQPETT [HPV16 E7 11-20] , respond with its IC50.
7.3
